# target_or_test_system: platelet activating factor (PAF) receptor (human platelet plasma membrane) (Homo sapiens, UniProt P25105)
# Construct: Platelet concentrates were obtained from a hospital blood bank
# Sequence (P25105 whole entry): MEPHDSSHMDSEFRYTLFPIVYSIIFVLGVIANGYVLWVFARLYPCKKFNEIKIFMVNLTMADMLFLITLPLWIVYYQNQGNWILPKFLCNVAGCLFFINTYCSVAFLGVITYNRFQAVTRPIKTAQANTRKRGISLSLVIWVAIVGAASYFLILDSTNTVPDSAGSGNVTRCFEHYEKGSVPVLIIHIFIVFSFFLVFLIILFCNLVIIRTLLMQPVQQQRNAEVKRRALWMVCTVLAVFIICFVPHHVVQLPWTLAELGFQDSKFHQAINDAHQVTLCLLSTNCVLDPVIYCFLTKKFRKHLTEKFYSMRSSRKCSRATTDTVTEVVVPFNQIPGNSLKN
# protocol_text: inhibition of [^3 H]-PAF receptor binding to human platelet plasma membrane
# particulars: [^3 H]-PAF 0.5 nM, 0° C., 1 hour, pH 7.0
Exercise: state measured log10 of IC50 for each of the compounds provided.
Lab note - IC50 converted to log10 from values in nM.

Find the recorded log10 of IC50 belonging to Cc1noc([C@H](CC(C)C)N(C)S(=O)(=O)c2ccc(Cn3c(C)nc4cnccc43)cc2)n1 [Example 155] and report it.
0.30

Find the recorded log10 of IC50 belonging to CCCCCCCCCCCCCCCCCCNC(=O)OC[C@H](CC(C)C)N(C)S(=O)(=O)c1ccc(Cn2c(C)nc3cnccc32)cc1 [Example 109] and report it.
0.48

Find the recorded log10 of IC50 belonging to CCCCCCCCCCCCCCCCCC(=O)OC[C@H](CC(C)C)N(C)S(=O)(=O)c1ccc(Cn2c(C)nc3cnccc32)cc1 [Example 44] and report it.
0.00

Find the recorded log10 of IC50 belonging to Cc1nc2cnccc2n1Cc1ccc(S(=O)(=O)N(C)[C@H](CO)CC(C)C)cc1 [Example 1] and report it.
0.85

Find the recorded log10 of IC50 belonging to CC1=C(/C=C/C(C)=C/C=C/C(C)=C/C(=O)OC[C@H](CC(C)C)N(C)S(=O)(=O)c2ccc(Cn3c(C)nc4cnccc43)cc2)C(C)(C)CCC1 [Example 79] and report it.
0.60

Find the recorded log10 of IC50 belonging to CCC(=O)OC[C@H](CC(C)C)N(C)S(=O)(=O)c1ccc(Cn2c(C)nc3cnccc32)cc1 [Example 45] and report it.
-0.30

Find the recorded log10 of IC50 belonging to CCOC(=O)C(=O)OC[C@H](CC(C)C)N(C)S(=O)(=O)c1ccc(Cn2c(C)nc3cnccc32)cc1 [Example 47] and report it.
0.30

Find the recorded log10 of IC50 belonging to CC(=O)Oc1ccccc1C(=O)OC[C@H](CC(C)C)N(C)S(=O)(=O)c1ccc(Cn2c(C)nc3cnccc32)cc1 [Example 49] and report it.
0.30
